Consider the following compounds; for each one, report its ED50.
# subjectOfTest: Adrenergic receptor alpha-2 (Rattus norvegicus) (UniProt P22086+P19328+P22909)
# assayRemarks: Inhibition ofmedetomidine-induced loss of righting, which evaluates the ability to block central alpha-2-adrenoceptor
# Assay type: functional
Respond with the bare value in mg/kg.

Lookup result for COc1cc2c(cc1OC)C1=NO[C@@H](CN3CCN(C/C(C)=C/c4cc(F)ccc4F)CC3)[C@@H]1CO2 ; measured ED50: 2.5

Entry COc1cc2c(cc1OC)C1=NO[C@@H](CN3CCN(C/C=C/c4ccc(Cl)cc4)CC3)[C@@H]1CO2 ; ED50 = 10

Lab note: measured ED50 of COc1cc2c(cc1OC)C1=NO[C@@H](CN3CCN(C/C(C)=C/c4cccnc4)CC3)[C@@H]1CO2 was 3.1

Measured ED50 of COc1cc2c(cc1OC)C1=NO[C@@H](CN3CCN(C/C(C)=C/c4cccc(F)c4F)CC3)[C@@H]1CO2 : 10

Record COc1cc2c(cc1OC)C1=NO[C@@H](CN3CCN(C/C(C)=C/c4ccccc4)CC3)[C@@H]1CO2 , field ED50: 1.3

For reference, reported ED50 for COc1cc2c(cc1OC)C1=NO[C@@H](CN3CCN(C/C=C/c4ccccc4F)CC3)[C@@H]1CO2 stands at 2.5

The value of ED50 measured for the compound COc1cc2c(cc1OC)C1=NO[C@@H](CN3CCN(C/C=C(\C)c4ccco4)CC3)[C@@H]1CO2 turned out to be 0.16

# compound COc1cc2c(cc1OC)C1=NO[C@@H](CN3CCN(C/C=C(\C)c4ccc(F)cc4)CC3)[C@@H]1CO2 ; its ED50 = 1.25

The reported value for COc1cc2c(cc1OC)C1=NO[C@@H](CN3CCN(C/C(C)=C/c4ccc(F)cc4)CC3)[C@@H]1CO2 in terms of ED50 is 10

Short answer for COc1cc2c(cc1OC)C1=NO[C@@H](CN3CCN(C/C(C)=C/c4cccc(F)c4)CC3)[C@@H]1CO2 : ED50 was 0.63

response.value for COc1ccccc1/C=C(\C)CN1CCN(C[C@@H]2ON=C3c4cc(OC)c(OC)cc4OC[C@H]32)CC1 (field: ED50) = 2

// ED50 lookup, compound = COc1cc2c(cc1OC)C1=NO[C@@H](CN3CCN(C/C(C)=C/c4ccsc4)CC3)[C@@H]1CO2 , result: 1.25

According to the records, this compound COc1cc2c(cc1OC)C1=NO[C@@H](CN3CCN(C/C=C/c4ccc(F)cc4)CC3)[C@@H]1CO2 displays ED50 of 4.7

The compound listed as COc1cc2c(cc1OC)C1=NO[C@@H](CN3CCN(C/C(C)=C/c4ccco4)CC3)[C@@H]1CO2 shows ED50 equal to 5

###

Target chain: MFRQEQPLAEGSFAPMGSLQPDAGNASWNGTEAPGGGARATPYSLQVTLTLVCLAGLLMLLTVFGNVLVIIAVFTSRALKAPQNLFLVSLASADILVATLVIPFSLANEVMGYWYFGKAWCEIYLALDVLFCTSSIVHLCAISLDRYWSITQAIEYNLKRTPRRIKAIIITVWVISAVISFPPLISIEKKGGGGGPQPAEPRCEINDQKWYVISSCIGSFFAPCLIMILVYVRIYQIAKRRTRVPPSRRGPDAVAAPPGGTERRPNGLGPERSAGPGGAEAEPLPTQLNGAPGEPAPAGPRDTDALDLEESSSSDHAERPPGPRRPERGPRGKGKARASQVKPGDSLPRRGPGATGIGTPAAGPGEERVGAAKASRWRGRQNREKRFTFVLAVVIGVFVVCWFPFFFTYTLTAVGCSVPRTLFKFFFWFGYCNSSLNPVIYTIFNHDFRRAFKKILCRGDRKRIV
measurementKind: pKi
Recall that pKi is obtained by taking minus log10 of the concentration measured in molar.

pKi for COc1cc2c(cc1OC)C1=NO[C@@H](CN3CCN(C/C(C)=C/c4cccc(F)c4F)CC3)[C@@H]1CO2 is 8.52

The molecule listed as COc1cc2c(cc1OC)C1=NO[C@@H](CN3CCN(C/C=C(\C)c4cccs4)CC3)[C@@H]1CO2 has a reported pKi of 9.52

The recorded pKi for entry COc1cc2c(cc1OC)C1=NO[C@@H](CN3CCN(C/C(C)=C/c4cccs4)CC3)[C@@H]1CO2 equals 8.77

Notebook: COc1cc2c(cc1OC)C1=NO[C@@H](CN3CCN(C/C(C)=C/c4cccc(F)c4)CC3)[C@@H]1CO2 , pKi read as 8.96

COc1cc2c(cc1OC)C1=NO[C@@H](CN3CCN(C/C=C(\C)c4ccc(F)cc4)CC3)[C@@H]1CO2 yielded pKi of 8.54

Looking up COc1ccccc1/C=C(\C)CN1CCN(C[C@@H]2ON=C3c4cc(OC)c(OC)cc4OC[C@H]32)CC1 , I see its pKi listed as 9.00

###

# subjectOfTest: Adrenergic receptor alpha-2 (Rattus norvegicus) (UniProt P22086+P19328+P22909)
# assayRemarks: Inhibition ofmedetomidine-induced loss of righting, which evaluates the ability to block central alpha-2-adrenoceptor
# Assay type: functional
What ED50 was measured for each of the following?
Please state the figure in mg/kg; there is no need to write the unit.

// ED50 lookup, compound = COc1cc2c(cc1OC)C1=NO[C@@H](CN3CCN(C/C=C(\C)c4cccs4)CC3)[C@@H]1CO2 , result: 0.63

Lab note: measured ED50 of COc1cc2c(cc1OC)C1=NO[C@@H](CN3CCN(C/C=C(\C)c4ccsc4)CC3)[C@@H]1CO2 was 1.25

The reported value for COc1cc2c(cc1OC)C1=NO[C@@H](CN3CCN(C/C(C)=C/c4cccs4)CC3)[C@@H]1CO2 in terms of ED50 is 0.63

The compound listed as COc1cc2c(cc1OC)C1=NO[C@@H](CN3CCN(C/C=C/c4cccc(F)c4)CC3)[C@@H]1CO2 shows ED50 equal to 5

# compound COc1cc2c(cc1OC)C1=NO[C@@H](CN3CCN(C/C=C(\C)c4ccccc4)CC3)[C@@H]1CO2 ; its ED50 = 0.3

###

For each of the molecules below, state its ED50.
# subjectOfTest: Adrenergic receptor alpha-2 (Rattus norvegicus) (UniProt P22086+P19328+P22909)
# assayRemarks: Inhibition ofmedetomidine-induced loss of righting, which evaluates the ability to block central alpha-2-adrenoceptor
# Type: functional

Entry COc1cc2c(cc1OC)C1=NO[C@@H](CN3CCN(C/C=C(\C)c4ccc(O)cc4)CC3)[C@@H]1CO2 ; assay system Adrenergic receptor alpha-2 (Rattus norvegicus) (UniProt P22086+P19328+P22909); ED50 recorded at > 2.5 mg/kg

Test item COc1cc2c(cc1OC)C1=NO[C@@H](CN3CCN(C/C=C(\C)c4ccc(F)cc4F)CC3)[C@@H]1CO2 ; Adrenergic receptor alpha-2 (Rattus norvegicus) (UniProt P22086+P19328+P22909); reported ED50 was > 2.5 mg/kg

Sample COc1cc2c(cc1OC)C1=NO[C@@H](CN3CCN(C/C=C\c4ccccc4)CC3)[C@@H]1CO2 , system: Adrenergic receptor alpha-2 (Rattus norvegicus) (UniProt P22086+P19328+P22909). Its ED50 is > 10 mg/kg
